Source of measurements: ChEMBL document CHEMBL1201862

- Test system: HT-29
- assay.procedure: NCI tumour cell line growth inhibition, 48 h
Calls of active or inactive are those of the source. No stated cut-off is given here; in the data, active = GI50 up to about 1.1 µM and inactive = higher.
Parameter GI50: see the listing below.

Qu. Find the recorded GI50 belonging to CC(=O)SC(SC(C)=O)SC(C)=O and report it.
Ans. 24.7 µM (inactive)

Qu. And for Cc1nc(O)nc2nc3ccc(Cl)cc3c(NC(C)(CO)CO)c12 ?
Ans. > 100 µM (inactive)

Qu. NC(=O)c1ncn(C2OC(CO)C(O)C2O)c1NC(=S)NC(=O)c1ccccc1 (configuration not stated) ?
Ans. > 100 µM (inactive)

Qu. Then this molecule: O=C1OCCC1(Cc1ccc(Cl)cc1)Cc1ccc(Cl)cc1
Ans. > 100 µM (inactive)

Qu. Same lookup for Cc1[nH]c2ncn3[nH]c(=S)nc3c2c1Cc1ccccc1 , please.
Ans. > 100 µM (inactive)

Qu. Lookup Brc1ccc(-c2cn3ccncc3n2)cc1
Ans. > 100 µM (inactive)

Qu. Another molecule to check: O=C1CC(C(OCc2ccccc2)C(OCc2ccccc2)C(COCc2ccccc2)OCc2ccccc2)CC(=O)N1 (configuration not stated)
Ans. > 75 µM (inactive)

Qu. Likewise for COC(=O)c1cc(/C=C2\Cc3cc4c(cc3C2=O)CCC4)cc2c1CCC2 ?
Ans. > 100 µM (inactive)

Qu. Query Cc1nc2cc([N+](=O)[O-])ccc2c(NCCCN(C)C)c1C next
Ans. 2.76 µM (inactive)

Qu. And then Cc1cc(NC(=O)NC(=O)c2ccccc2NC(=O)CN)ccc1Oc1ncc(Br)cn1 , what is it?
Ans. 0.299 µM (active)

Qu. And what about the molecule COCC(=O)OC1CCn2c1nc1c2C(=O)C(C)=C(NC(C)=O)C1=O (configuration not stated) ?
Ans. 9.93 µM (inactive)

Qu. Also need O=[N+]([O-])c1ccc(NN=C2c3ccccc3Cc3ccccc32)c([N+](=O)[O-])c1 , thanks.
Ans. 2.88 µM (inactive)

Qu. Now consider CN(C)CCNC(=O)c1cccc2nc3c(ccc4ccccc43)nc12 and answer again.
Ans. 1.56 µM (inactive)

Qu. Same read-out for CN(C(=O)c1cc2c(s1)sc1c(=O)n(C)c3ccccc3c12)c1ccccc1 ?
Ans. 2.77 µM (inactive)

----------
- Test system: NCI-H23
- assay.procedure: NCI tumour cell line growth inhibition, 48 h
The source made the active and inactive calls. Cut-off read from the data, not from the text of the source: active = GI50 up to about 1.1 µM and inactive = higher.
GI50 values, listed per item

compound | experimental.result
CCCC(=O)n1[nH]c(=O)n(-c2ccc(Cl)cc2)c1=O | > 100 µM (inactive)
C/C(=N\NC(N)=O)C(CN(C)C)C(c1ccccc1)c1c(O)c2ccccc2oc1=O (stereo unspecified) | > 100 µM (inactive)
O=c1n(Cc2ccccc2)c(=O)n2c(=O)n(Cc3ccccc3)c(=O)n12 | > 100 µM (inactive)

Qu. Need GI50 of CCOP(=O)(OCC)C1CCCCOC1=O (stereo unspecified) , thanks.
Ans. > 100 µM (inactive)

Qu. Try the compound O=C1Nc2cc(Cl)ccc2N=CC1NC(=O)C(c1ccccc1)c1ccccc1Cl (stereo unspecified)
Ans. > 100 µM (inactive)

Qu. // same read-out, input: c1c2c(cc3c1OCO3)-c1cc3ccc4c(c3c[n+]1CC2)OCO4 [COPTISINE CHLORIDE]
Ans. 0.815 µM (active)

Qu. One more compound: CNC(C#N)c1ccc(OC)cc1 (stereo unspecified)
Ans. > 100 µM (inactive)

Qu. Same again, this time with CNC(=O)/C(=C/c1ccc(OC)cc1)c1cc(OC)c(OC)c(OC)c1
Ans. 3.52 µM (inactive)

Qu. Queued: CCOc1ccncc1[N+](=O)[O-]
Ans. > 100 µM (inactive)

Qu. Now the same for CC1=C(Oc2ccccc2)C(CCC(=O)O)c2c(O)cc(Cl)c(O)c21 (stereo unspecified)
Ans. > 100 µM (inactive)

Qu. And CCOC(=O)C1S/C(=N\c2ccc(Cl)cc2)N=C1C (stereo unspecified) ?
Ans. 18 µM (inactive)
